GI50: recorded values
System: OVCAR-5
Assay: NCI tumour cell line growth inhibition, 48 h
Calls of active or inactive are those of the source. Cut-off read from the data, not from the text of the source: active = GI50 up to about 1.1 µM and inactive = higher.

Asked: Notebook: pull reported GI50 for OVCAR-5, entry "O=C(/C=C/c1ccccc1O)c1cccc2ccccc12"
Given back: > 100 µM (inactive)

Asked: Then what about the molecule O=c1[nH]cnc(NC2C=C(CO)C(O)C2O)c1[N+](=O)[O-] (stereo unspecified) ?
Given back: > 100 µM (inactive)

Asked: Then what about the molecule "c1ccc(CN2CCN3CCN(CC2)CCN(Cc2ccccc2)CC3)cc1" ?
Given back: 9.48 µM (inactive)

Asked: Then what about the molecule "Cc1ccc(/N=N/C(=N\c2ccc(F)cc2)c2ccc(N(CCC#N)CCC#N)cc2)cc1" ?
Given back: > 100 µM (inactive)

Asked: Then what about the molecule "CC(C)Sc1nncc(/C(N)=N/O)n1" ?
Given back: > 100 µM (inactive)

Asked: Then what about the molecule "CC1(C)COC(c2cccc(C3=NC(C)(C)CO3)c2Br)=N1" ?
Given back: > 100 µM (inactive)
